Catalogue of TGI readings, one per entry.
Tested on: HS 578T breast
Test: NCI tumour cell line growth inhibition, 48 h
Where a SMILES comes first, the peptide text is derived from it.

MOLECULE: C=C(C)C(=O)O[C@H]1CC2(CO)O[C@@H]2CC/C(COC(C)=O)=C/C2OC(=O)C(=C)[C@@H]21 (some centres undefined)
TGI: > 100 µM
--
MOLECULE: CCC1(O)CC(O)c2c(O)c3c(c(O)c2C1C(=O)OC)C(=O)c1cccc(O)c1C3=O (centres undefined)
TGI: 24.5 µM
--
MOLECULE: O=c1cc(C(F)(F)F)c2cc3c(cc2o1)NCCC3
TGI: 61.9 µM
--
MOLECULE: COCCN(C(=O)c1ccccc1)C1CCC(=O)c2[nH]c3ccccc3c21 (centres undefined)
TGI: > 75.5 µM
--
MOLECULE: CCN(CC)c1ccc(/C=C\c2cc(C)c3cc(C)ccc3n2)cc1
TGI: 48.4 µM
--
MOLECULE: CC12CCC3C(CC=C4CC(O)CCC43C)C1C/C(=C\N1CCCC1)C2=O (centres undefined)
TGI: > 100 µM
--
MOLECULE: CCC(C)C(NC(=O)C1CCCN1)C(=O)NC(C(=O)NCC(=O)NC(CC(N)=O)C(=O)NC(CC(C)C)C(=O)NC(CC(C)C)C(=O)NC(CCCCN)C(N)=O)C(C)C (centres undefined) (H-PIVGNLLK-NH2; configuration not given here)
TGI: > 75 µM
--
MOLECULE: C/C(=C\COP(=O)(O)OP(=O)(O)O)CC/C=C(\C)CNc1ccccc1
TGI: > 50 µM
--
MOLECULE: CCCC(CC)c1cc(O)c(O)cc1C(CC)CCC (centres undefined)
TGI: > 10 µM

====

Catalogue of TGI readings, one per entry.
Tested on: MDA-MB-231 breast
Test: NCI tumour cell line growth inhibition, 48 h

COMPOUND: CC(=O)OCC1(CNc2nc(N)ncc2C#N)CC(CCc2ccccc2)C1 (stereo unspecified)
TGI: > 100 µM
--
COMPOUND: O=C(O)C(=Cc1ccnc2ccccc12)C(=O)O
TGI: > 100 µM
--
COMPOUND: Cn1c(O)c(/C=N/c2ncccn2)c(=O)[nH]c1=O
TGI: > 100 µM
--
COMPOUND: Cc1c(C#N)cccc1-c1cc(-c2cn(Cc3cccc(C(C)(C)O)n3)nn2)nc(N)n1
TGI: > 100 µM
--
COMPOUND: COc1ccc(C(=O)/C=C/c2ccc(OCCCOc3ccc(/C=C/C(=O)c4ccc(OC)c(OC)c4)cc3)cc2)cc1OC
TGI: > 100 µM
--
COMPOUND: C(=N\Nc1ccccn1)/c1ccccn1
TGI: > 100 µM
--
COMPOUND: Nc1cc2ncnc(Nc3cccc(Br)c3)c2cn1
TGI: > 100 µM
--
COMPOUND: CCOC(=O)COC1=Nc2cc(OC)c(OC)c3nc(Cl)cc(c23)C1=O
TGI: 3.28 µM
--
COMPOUND: O=Cc1c(-c2cc(O)ccc2O)nc2sccn12
TGI: 31.4 µM
--
COMPOUND: N[C@@H](Cc1c[nH]c2ccccc12)C(=O)NC1CCN(C(=O)c2c[nH]c3ccccc23)CC1
TGI: > 100 µM
--
COMPOUND: O=C1/C(=C/c2cccs2)N=C(c2ccccc2)N1c1nc2ccccc2s1
TGI: > 100 µM
